target: DENV serotype 2 NS2B-NS3 protease (Dengue virus type 2, UniProt P14340); construct: The proteolytic activity of WNV and DENV is located in the N-terminal part of its NS3 protein; made in house; assay: Enzyme kinetic inhibition of DENV-2 NS2B-NS3 protease construct; assay type: biochemical, Dengue virus serotype 2; conditions: 100 μM inhibitor in the presence of 125 μM substrate; read-out: % Inhib. (DENV)
Sequence (P14340 1476-1653): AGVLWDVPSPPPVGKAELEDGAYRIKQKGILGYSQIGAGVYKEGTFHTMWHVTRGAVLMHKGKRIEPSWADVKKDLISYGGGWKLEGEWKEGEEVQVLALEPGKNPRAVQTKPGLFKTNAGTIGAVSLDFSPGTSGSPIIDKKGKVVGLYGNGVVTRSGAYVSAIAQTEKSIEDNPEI
Sequence (P14340 1398-1437): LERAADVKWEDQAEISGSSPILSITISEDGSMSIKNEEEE
Peptide text beside a SMILES is read from it.
Decide using inhibition at 100 µM: a value greater than or equal to 30% is fulfilled, a smaller one is not fulfilled.

| compound | assigned.class |
| --- | --- |
| N=C(N)NCCC[C@H](NC(=O)[C@H](CCCCN)NC(=O)[C@H](CCCCN)NC(=O)Cc1ccc(CN)cc1)C(N)=O [inhibitor 35] | fulfilled |
| C[C@@H](NC(=O)[C@H](CCCNC(=N)N)NC(=O)[C@H](CCCCN)NC(=O)[C@H](CCCCN)NC(=O)Cc1ccccc1)C(N)=O [inhibitor 20] (HELM PEPTIDE1{[O=C(Cc1ccccc1)[*:2]].K.K.R.[dA].[am]}$$$$V2.0) | not fulfilled |
| N=C(N)NCCC[C@H](NC(=O)[C@H](CCCCN)NC(=O)[C@H](CCCCN)NC(=O)Cc1ccc(-c2ccccc2)cc1)C(N)=O [inhibitor 34] | not fulfilled |
| N=C(N)NCCC[C@H](NC(=O)[C@H](CCCCN)NC(=O)[C@H](CCCCN)NC(=O)C(N)C1CCCCC1)C(N)=O (stereo partly drawn) [inhibitor 42] (HELM PEPTIDE1{[NC(C(=O)[*:2])C1CCCCC1].K.K.R.[am]}$$$$V2.0) | fulfilled |
| N=C(N)NCCC[C@H](NC(=O)[C@H](CCCCN)NC(=O)[C@H](CCCCN)NC(=O)Cc1ccc(Cl)c(Cl)c1)C(N)=O [inhibitor 29] | not fulfilled |
| C[C@H](NC(=O)[C@H](CCCNC(=N)N)NC(=O)[C@H](CCCCN)NC(=O)[C@H](CCCCN)NC(=O)Cc1ccccc1)C(N)=O [inhibitor 19] (HELM PEPTIDE1{[O=C(Cc1ccccc1)[*:2]].K.K.R.A.[am]}$$$$V2.0) | not fulfilled |
